This collection of values is drawn from patent US20100204130A1.

Test: Cytotoxicity in HIV-1 assay (MTS cell viability)
Settings: human, CEM-SS cells
Where a SMILES comes first, the peptide text is derived from it.
ENDPOINT_NAME: viability at 10 micrograms per ml (%)

[[record]]
compound = "CC(C)C[C@H](NC(=O)CNC(=O)[C@H](CCC(=O)O)NC(=O)CNC(=O)[C@H](C)N)C(=O)N[C@@H](CC(N)=O)C(=O)N[C@@H](CO)C(=O)N[C@@H](CCC(N)=O)C(=O)N[C@@H](Cc1ccccc1)C(=O)N[C@@H](Cc1c[nH]c2ccccc12)C(=O)N[C@@H](CO)C(=O)N[C@@H](CC(C)C)C(=O)N[C@@H](C)C(=O)N[C@@H](C)C(=O)N1CCC[C@H]1C(=O)N[C@@H](CCC(N)=O)C(=O)N[C@@H](CCCNC(=N)N)C(=O)N[C@@H](Cc1ccccc1)C(N)=O [Neuropeptide AF] (H-AGEGLNSQFWSLAAPQRF-NH2)"
endpoint_name = "viability at 10 micrograms per ml"
endpoint_result = 81.6

